# credit: patent US11932606B2

Target: UniProt:Q9H2X6
Test: HIPK2 enzymatic activity inhibition (Z'-LYTE)
Format: biochemical
pIC50: −log10 of the molar value.
I'd be grateful if you could share measured pIC50 for these entries.

1) O=C(O)c1ccc2c(ccc3ccncc32)c1 : 5.30 to 6.00

For each of the compounds below, state pIC50.
1. O=C(O)c1ccc2c(c1)cc(Nc1ccc(Cl)cc1)c1ccncc12
2. NC(=O)c1ccc2c(c1)cc(Br)c1ccnc(N)c12
3. O=C(O)c1ccc2c(c1)cc(-c1cc[nH]n1)c1ccncc12
4. O=C(O)c1ccc2c(c1)cc(-c1ccc(Cl)cc1)c1ccncc12
5. O=C(O)c1ccc2c(c1)cc([N+](=O)[O-])c1ccncc12

1. 6.00 to 6.52
2. 6.00 to 6.52
3. 5.30 to 6.00
4. 5.30 to 6.00
5. 6.00 to 6.52

For each of the compounds below, state pIC50.
1. O=C(O)c1ccc2c(c1)cc(Nc1cccc(Cl)c1)c1ccncc12
2. Cc1cc2cc(C(=O)O)ccc2c2cnccc12
3. CC[C@H](C)Nc1cc2cc(C(=O)O)ccc2c2cnccc12
4. O=C(O)c1ccc2c(c1)cc(C1CC1)c1ccncc12
5. O=C(O)c1ccc2c(c1)cc(-c1cccnc1)c1ccncc12
6. O=C(O)c1ccc2c(c1)cc(-c1ccncc1)c1ccncc12

6.00 to 6.52
6.00 to 6.52
5.30 to 6.00
6.00 to 6.52
5.30 to 6.00
5.30 to 6.00

###

Target: HIPK2 (Homo sapiens (Human), UniProt Q9H2X6)
Sequence (Q9H2X6 whole entry): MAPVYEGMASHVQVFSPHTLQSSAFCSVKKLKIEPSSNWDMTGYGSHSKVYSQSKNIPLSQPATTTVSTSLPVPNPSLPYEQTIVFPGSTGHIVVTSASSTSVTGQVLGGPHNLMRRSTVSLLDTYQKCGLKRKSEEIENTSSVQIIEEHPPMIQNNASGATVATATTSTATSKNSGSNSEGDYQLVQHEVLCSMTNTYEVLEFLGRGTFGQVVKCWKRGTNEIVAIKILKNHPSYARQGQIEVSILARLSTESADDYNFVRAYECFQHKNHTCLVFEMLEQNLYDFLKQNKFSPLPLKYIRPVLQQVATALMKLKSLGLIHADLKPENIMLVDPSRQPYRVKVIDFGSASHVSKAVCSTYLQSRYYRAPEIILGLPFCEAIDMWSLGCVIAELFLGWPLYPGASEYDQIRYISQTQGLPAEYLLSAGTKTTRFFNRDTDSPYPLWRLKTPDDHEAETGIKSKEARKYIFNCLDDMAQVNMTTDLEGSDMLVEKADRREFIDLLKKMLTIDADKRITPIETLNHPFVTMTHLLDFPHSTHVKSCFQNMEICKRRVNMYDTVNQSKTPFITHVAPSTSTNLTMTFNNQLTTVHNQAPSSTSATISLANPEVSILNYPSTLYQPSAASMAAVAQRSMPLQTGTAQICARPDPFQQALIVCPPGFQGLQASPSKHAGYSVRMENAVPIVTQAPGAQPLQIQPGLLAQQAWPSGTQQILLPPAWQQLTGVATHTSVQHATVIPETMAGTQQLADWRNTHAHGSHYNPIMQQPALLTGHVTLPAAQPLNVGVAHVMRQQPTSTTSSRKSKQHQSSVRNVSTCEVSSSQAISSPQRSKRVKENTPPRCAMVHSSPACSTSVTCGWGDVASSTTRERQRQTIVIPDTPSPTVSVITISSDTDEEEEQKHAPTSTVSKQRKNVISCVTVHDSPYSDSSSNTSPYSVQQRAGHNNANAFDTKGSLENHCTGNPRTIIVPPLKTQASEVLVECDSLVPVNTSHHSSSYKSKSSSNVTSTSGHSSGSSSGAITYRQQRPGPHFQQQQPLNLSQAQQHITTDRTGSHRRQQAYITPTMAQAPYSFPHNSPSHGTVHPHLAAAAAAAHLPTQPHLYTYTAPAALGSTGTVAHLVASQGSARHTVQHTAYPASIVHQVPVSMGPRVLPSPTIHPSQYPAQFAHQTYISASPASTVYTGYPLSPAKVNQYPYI
Assay: HIPK2 enzymatic activity inhibition (Z'-LYTE)
Format: biochemical
pIC50: −log10 of the molar value.
QUANTITY NAME: pIC50

Recorded pIC50, per entry:
1) N#Cc1cc2cc(C(=O)O)ccc2c2cnccc12 : 6.00 to 6.52
2) O=C(O)c1ccc2c(c1)cc(Cl)c1ccncc12 : 6.00 to 6.52
3) O=C(O)c1ccc2c(c1)cc(Br)c1ccnc(NC3CC3)c12 : 5.30 to 6.00

For each of the compounds below, state pIC50.
1. CC(C)Nc1cc2cc(C(=O)O)ccc2c2cnccc12
2. CNc1nccc2c(Br)cc3cc(C(=O)O)ccc3c12
3. CN(C)c1nccc2c(Br)cc3cc(C(=O)O)ccc3c12
4. Nc1ccc(-c2cc3cc(C(=O)O)ccc3c3cnccc23)cn1
5. O=C(O)c1ccc2c(c1)cc(N[C@@H]1CCCNC1)c1ccncc12
6. COc1nccc2c(Br)cc3cc(C(=O)O)ccc3c12

["6.00 to 6.52", "5.30 to 6.00", "5.30 to 6.00", "6.00 to 6.52", "5.30 to 6.00", "5.30 to 6.00"]
